Origin of the recorded values: patent US20200024330A1

Target: HIV-1 APV-17 envelope protein (Env) on pseudovirus (HIV-1 isolate APV-17)
Assay: cell-based or functional assay
endpoint label: IC50 (µg/mL), pseudovirus neutralization

Fill blank: measured IC50 (µg/mL), pseudovirus neutralization of the binder 1460_G14 (PGG14) (antibody, human IgG1, kappa, V domains shown) VH: QVLLVQSGTEVKKPGSSVKVSCQASGGAFSSYAFSWVRQAPGQGLEWMGMITPVFGETKYAPRFQGRLTLTAEESLSTTYMELRSLTSDDTAFYYCTRDRRVVPMATDNWLDPWGQGTLVTVSS VL: DIQLTQSPSSLSASVGDRVTVTCRASQTIHTYLNWYQQIPGKAPKLLIYGASTLQSGVPSRFSGSGSGTDFTLTINSLQPEDFATYYCQQSYSTPRTFGQGTRLDIKR is ____.
> 50 µg/mL
